MEASURED_ON: T1, OTR503 (Artificial, UniProt Q9XDM8 SEQ:1-184)
T1 chain: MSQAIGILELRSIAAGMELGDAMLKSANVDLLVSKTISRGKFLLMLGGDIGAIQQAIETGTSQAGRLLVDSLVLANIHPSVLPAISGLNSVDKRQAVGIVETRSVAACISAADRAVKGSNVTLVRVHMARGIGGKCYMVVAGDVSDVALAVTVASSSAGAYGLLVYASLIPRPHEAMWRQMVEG
METHOD_SUMMARY: fluorescence quenching kinetics koff/kon, PBS, room temp
STATED_CONDITIONS: tags: C-terminal His6; chain copies: 24 (inferred); label: Atto488 5'
REPORTED_PROPERTY: pKd
The scale used: pKd is minus the common logarithm of the concentration in molar units.

Query string: pKd lookup needed for TTAATTAAAGACTTCAAGCGG (ssDNA) [Atto488-ssDNA (A488-DNA)] , thanks.
Result string: 9.22

Where do these numbers come from? They come from patent US20210163540.
